These measurements were taken from patent US12258328B2.

Please provide measured pIC50 for the entries that follow.
measured.target: EGFR L858R/T790M/C797S (Homo sapiens, UniProt P00533, C797S/L858R/T790M)
Sequence (P00533 25-1210 T790M/C797S/L858R): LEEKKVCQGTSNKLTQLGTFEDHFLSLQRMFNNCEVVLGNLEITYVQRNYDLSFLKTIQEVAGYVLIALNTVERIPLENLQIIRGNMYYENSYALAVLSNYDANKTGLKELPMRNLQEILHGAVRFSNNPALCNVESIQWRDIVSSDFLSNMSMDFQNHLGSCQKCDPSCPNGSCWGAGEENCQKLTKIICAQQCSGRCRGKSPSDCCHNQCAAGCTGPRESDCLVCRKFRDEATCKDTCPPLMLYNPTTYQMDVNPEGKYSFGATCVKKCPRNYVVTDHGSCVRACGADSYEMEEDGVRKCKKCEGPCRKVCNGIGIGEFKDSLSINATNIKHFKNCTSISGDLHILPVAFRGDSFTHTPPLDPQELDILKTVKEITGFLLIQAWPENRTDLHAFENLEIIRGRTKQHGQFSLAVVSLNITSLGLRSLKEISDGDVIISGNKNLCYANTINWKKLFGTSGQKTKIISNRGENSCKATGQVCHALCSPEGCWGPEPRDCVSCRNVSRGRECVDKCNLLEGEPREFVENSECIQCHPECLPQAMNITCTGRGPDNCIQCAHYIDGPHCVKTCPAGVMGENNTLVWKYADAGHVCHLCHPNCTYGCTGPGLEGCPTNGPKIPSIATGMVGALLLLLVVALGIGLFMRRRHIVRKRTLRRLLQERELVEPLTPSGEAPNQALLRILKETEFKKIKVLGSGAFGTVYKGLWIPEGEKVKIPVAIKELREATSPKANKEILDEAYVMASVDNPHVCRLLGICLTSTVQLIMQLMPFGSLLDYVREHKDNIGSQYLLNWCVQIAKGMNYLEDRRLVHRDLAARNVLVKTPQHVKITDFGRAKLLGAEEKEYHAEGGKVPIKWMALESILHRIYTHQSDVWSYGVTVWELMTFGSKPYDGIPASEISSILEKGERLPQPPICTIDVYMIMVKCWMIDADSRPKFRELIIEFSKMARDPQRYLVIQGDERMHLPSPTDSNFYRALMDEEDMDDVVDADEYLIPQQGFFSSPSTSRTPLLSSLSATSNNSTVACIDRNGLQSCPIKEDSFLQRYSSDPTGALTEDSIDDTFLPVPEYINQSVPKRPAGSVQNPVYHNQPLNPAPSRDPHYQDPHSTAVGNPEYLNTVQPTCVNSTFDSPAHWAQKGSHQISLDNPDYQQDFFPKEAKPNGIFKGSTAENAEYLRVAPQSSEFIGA
method.description: Biochemical EGFR kinase assay (Lance Ultra TR-FRET), triple mutant L858R/T790M/C797S
reported.conditions: IC50 L858R/T790M/C797S, 100 μM ATP
API: returns pIC50 as number; meaning -log10 of concentration in mol/L.

query: Need pIC50, item CC(C)(O)[C@H]1CC[C@@H](Nc2cc(Nc3ccnc(-c4cnn(S(=O)(=O)C5CC5)c4)n3)ncc2-c2ccc(OCCN3CCC3)cn2)CC1
result: 9.52

query: Look up pIC50 for this compound: CC(C)(O)[C@H]1CC[C@@H](Nc2cc(Nc3ccnc(-c4cnn(S(=O)(=O)C5CC5)c4)n3)ncc2-c2ccc(C(=O)N3CCOCC3)cn2)CC1
result: 9.40

query: Given CC(C)(O)[C@H]1CC[C@@H](Nc2cc(Nc3ccnc(-c4cnn(S(=O)(=O)C5CC5)c4)n3)ncc2-c2ccc(OCCO)cn2)CC1 , state its recorded pIC50.
result: 9.10

query: Recorded pIC50 of O=S(=O)(C1CC1)n1cc(-c2nccc(Nc3cc(N[C@H]4CC[C@@H](CCO)CC4)c(-c4ccc(CC(F)(F)F)cn4)cn3)n2)cn1 , please.
result: 8.30

query: Record request: pIC50 value, item CN(C)CCOc1ccnc(-c2cnc(Nc3ccnc(-c4cnn(S(=O)(=O)C5CC5)c4)n3)cc2N[C@H]2CC[C@@](C)(O)CC2)c1
result: 10.00

query: # pIC50 lookup, item CN(C)C(=O)[C@H]1CC[C@@H](Nc2cc(Nc3ccnc(-c4cnn(S(=O)(=O)C5CC5)c4)n3)ncc2-c2ccc(C(C)(C)O)cn2)CC1
result: 9.70

query: Would you kindly share the measured pIC50 for C[C@]1(O)CC[C@@H](Nc2cc(Nc3ccnc(-c4cnn(S(=O)(=O)C5CC5)c4)n3)ncc2-c2cc(NC3CC(F)(F)C3)ccn2)CC1 ?
result: 9.30

query: Fill blank: measured pIC50 of the compound CC(C)(O)[C@H]1CC[C@@H](Nc2cc(Nc3ccnc(-c4cnn(S(=O)(=O)C5CC5)c4)n3)ncc2-c2cc(NC3CC(F)(F)C3)ccn2)CC1 is ____.
result: 7.76

query: // pIC50 lookup, key: CN(C)c1ccnc(-c2cnc(Nc3ccnc(-c4cnn(S(=O)(=O)C5CC5)c4)n3)cc2N[C@H]2CC[C@@](C)(O)CC2)c1
result: 8.46

query: Quick one: pIC50 for C[C@]1(O)CC[C@@H](Nc2cc(Nc3ccnc(-c4cnn(S(=O)(=O)C5CC5)c4)n3)ncc2-c2ccc(C(F)(F)F)c(F)n2)CC1 ?
result: 7.69

query: Looking for the measured pIC50 of O=S(=O)(C1CC1)n1cc(-c2nccc(Nc3cc(N[C@H]4CC[C@@H](CO)CC4)c(-c4ccc(C(F)(F)CO)cn4)cn3)n2)cn1 , can you help?
result: 9.52

query: # input compound: CC1(O)CCC(Nc2cc(Nc3ccnc(-c4cnn(S(=O)(=O)C5CC5)c4)n3)ncc2-c2ccc(C(O)C(F)(F)F)cn2)CC1 (stereo not drawn) ; wanted: its pIC50
result: 9.30

---

measured.target: EGFR del19/C797S (Homo sapiens, UniProt P00533, C797S/DEL746-750)
Sequence (P00533 with tags, fused parts or gaps DEL746-750/C797S): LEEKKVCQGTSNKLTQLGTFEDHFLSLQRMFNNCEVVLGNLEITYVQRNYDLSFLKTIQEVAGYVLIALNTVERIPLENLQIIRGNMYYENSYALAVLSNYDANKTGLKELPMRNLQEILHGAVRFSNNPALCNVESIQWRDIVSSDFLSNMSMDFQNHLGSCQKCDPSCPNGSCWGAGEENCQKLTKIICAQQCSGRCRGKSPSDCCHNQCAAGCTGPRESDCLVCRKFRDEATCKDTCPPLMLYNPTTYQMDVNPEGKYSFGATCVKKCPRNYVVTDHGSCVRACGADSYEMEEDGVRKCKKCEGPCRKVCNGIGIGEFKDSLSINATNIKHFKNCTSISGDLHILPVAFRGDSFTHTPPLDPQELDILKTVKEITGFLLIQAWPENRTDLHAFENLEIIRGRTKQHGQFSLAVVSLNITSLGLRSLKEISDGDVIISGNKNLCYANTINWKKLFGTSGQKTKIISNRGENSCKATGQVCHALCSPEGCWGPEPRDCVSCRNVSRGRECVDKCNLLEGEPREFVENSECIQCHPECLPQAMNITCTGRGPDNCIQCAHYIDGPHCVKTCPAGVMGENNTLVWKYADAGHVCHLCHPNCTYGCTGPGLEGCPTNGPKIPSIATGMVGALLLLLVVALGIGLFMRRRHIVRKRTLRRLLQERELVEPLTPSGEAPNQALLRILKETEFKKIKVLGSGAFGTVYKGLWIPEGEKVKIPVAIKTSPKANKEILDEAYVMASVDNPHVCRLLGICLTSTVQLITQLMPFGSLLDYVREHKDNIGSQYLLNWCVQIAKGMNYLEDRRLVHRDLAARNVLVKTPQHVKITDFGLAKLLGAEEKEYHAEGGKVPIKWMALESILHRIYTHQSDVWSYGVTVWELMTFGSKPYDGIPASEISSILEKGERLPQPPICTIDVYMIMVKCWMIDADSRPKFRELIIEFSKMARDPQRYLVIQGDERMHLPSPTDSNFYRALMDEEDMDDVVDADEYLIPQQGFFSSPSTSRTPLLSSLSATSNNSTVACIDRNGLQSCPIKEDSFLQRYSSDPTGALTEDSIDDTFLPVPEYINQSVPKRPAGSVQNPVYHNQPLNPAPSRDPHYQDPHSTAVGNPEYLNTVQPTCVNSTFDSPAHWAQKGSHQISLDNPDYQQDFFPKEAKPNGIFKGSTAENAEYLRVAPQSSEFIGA
method.description: Biochemical EGFR kinase assay (Lance Ultra TR-FRET), double mutant del19/C797S
reported.conditions: ATP at Km; read-out: IC50 del19/C797S, Km ATP
Answer each item with its documented pIC50.
Value format note: pIC50 is -log10 of concentration (mol/L); just state the number.

query: Enter reported pIC50 observed with EGFR del19/C797S (Homo sapiens, UniProt P00533, C797S/DEL746-750) for CC(C)(F)c1ccc(-c2cnc(Nc3ccnc(-c4cnn(S(=O)(=O)C5CC5)c4)n3)cc2NC2CCC(F)CC2)nc1 (stereo not drawn)
result: 7.14

query: What value of pIC50 on EGFR del19/C797S (Homo sapiens, UniProt P00533, C797S/DEL746-750) does CN(C)C(=O)[C@H]1CC[C@@H](Nc2cc(Nc3ccnc(-c4cnn(S(=O)(=O)C5CC5)c4)n3)ncc2-c2ccc(C(C)(C)O)cn2)CC1 have?
result: 9.52

query: Report pIC50 for CC(C)(O)[C@H]1CC[C@@H](Nc2cc(Nc3ccnc(-c4cnn(S(=O)(=O)C5CC5)c4)n3)ncc2-c2ccc(OCCN3CCC3)cn2)CC1 tested on EGFR del19/C797S (Homo sapiens, UniProt P00533, C797S/DEL746-750).
result: 9.70

query: What measured pIC50 is associated with CC(C)(F)c1ccc(-c2cnc(Nc3ccnc(-c4cnn(S(=O)(=O)C5CC5)c4)n3)cc2N[C@H]2CC[C@@H](CO)CC2)nc1 on EGFR del19/C797S (Homo sapiens, UniProt P00533, C797S/DEL746-750)?
result: 8.51

query: What is its pIC50 for EGFR del19/C797S (Homo sapiens, UniProt P00533, C797S/DEL746-750)? Entry: O=S(=O)(C1CC1)n1cc(-c2nccc(Nc3cc(N[C@H]4CC[C@@H](F)CC4)c(-c4cnc(OC5CCOCC5)cn4)cn3)n2)cn1
result: 7.47

query: Give the reported pIC50 for CC(C)(O)c1ccc(-c2cnc(Nc3ccnc(-c4cnn(S(=O)(=O)C5CC5)c4)n3)cc2NC2CCC(F)CC2)nc1 (stereo not drawn) (system: EGFR del19/C797S (Homo sapiens, UniProt P00533, C797S/DEL746-750)).
result: 8.11

query: Tell me reported pIC50 for CC(C)(O)c1ccc(-c2cnc(Nc3ccnc(-c4cnn(S(=O)(=O)C5CC5)c4)n3)cc2NC2CCN(CC(F)F)CC2)nc1 , tested with EGFR del19/C797S (Homo sapiens, UniProt P00533, C797S/DEL746-750).
result: 8.59

query: API: value(readout= pIC50, system= EGFR del19/C797S (Homo sapiens, UniProt P00533, C797S/DEL746-750), query= CN1CCN(C(=O)c2ccc(-c3cnc(Nc4ccnc(-c5cnn(S(=O)(=O)C6CC6)c5)n4)cc3N[C@H]3CC[C@@H](CO)CC3)nc2)CC1 )
result: 10.00

query: Form field: pIC50 recorded for C[C@]1(O)CC[C@@H](Nc2cc(Nc3ccnc(-c4cnn(S(=O)(=O)C5CC5)c4)n3)ncc2-c2ccc(C(F)(F)F)c(F)n2)CC1 with EGFR del19/C797S (Homo sapiens, UniProt P00533, C797S/DEL746-750) (enter value)
result: 7.79

query: Provide the documented pIC50 with EGFR del19/C797S (Homo sapiens, UniProt P00533, C797S/DEL746-750) as the system for C[C@]1(O)CC[C@@H](Nc2cc(Nc3ccnc(-c4cnn(S(=O)(=O)C5CC5)c4)n3)ncc2-c2cccc(CC(F)(F)F)n2)CC1
result: 8.02

query: Item: CC(O)(c1ccc(-c2cnc(Nc3ccnc(-c4cnn(S(=O)(=O)C5CC5)c4)n3)cc2NC2CCC(F)CC2)nc1)C(F)(F)F (stereo not drawn) [Example 265] Test system: EGFR del19/C797S (Homo sapiens, UniProt P00533, C797S/DEL746-750) Read-out: pIC50 Value: ?
result: 7.77

query: Give the reported pIC50 for O=S(=O)(C1CC1)n1cc(-c2nccc(Nc3cc(N[C@H]4CCC[C@H](CO)C4)c(-c4ccc(C(O)C(F)(F)F)cn4)cn3)n2)cn1 (stereo partly drawn) (system: EGFR del19/C797S (Homo sapiens, UniProt P00533, C797S/DEL746-750)).
result: 8.25

query: Hi! What's the reported pIC50 for CC1(O)CCC(Nc2cc(Nc3ccnc(-c4cnn(S(=O)(=O)C5CC5)c4)n3)ncc2-c2cc(CN3CC(O)C3)ccn2)CC1 (stereo not drawn) on EGFR del19/C797S (Homo sapiens, UniProt P00533, C797S/DEL746-750)?
result: 9.70

query: What reported pIC50 corresponds to CN(C)C[C@H]1CC[C@@H](Nc2cc(Nc3ccnc(-c4cnn(S(=O)(=O)C5CC5)c4)n3)ncc2-c2cccc(CC(F)(F)F)n2)CC1 on EGFR del19/C797S (Homo sapiens, UniProt P00533, C797S/DEL746-750)?
result: 8.70

query: Enter reported pIC50 observed with EGFR del19/C797S (Homo sapiens, UniProt P00533, C797S/DEL746-750) for CS(=O)(=O)c1ccc(-c2cnc(Nc3ccnc(-c4cnn(S(=O)(=O)C5CC5)c4)n3)cc2N[C@H]2CC[C@@H](NCCF)CC2)nc1
result: 9.10

query: pIC50 of CN(C)CCOc1ccnc(-c2cnc(Nc3ccnc(-c4cnn(S(=O)(=O)C5CC5)c4)n3)cc2N[C@H]2CC[C@@](C)(O)CC2)c1 on EGFR del19/C797S (Homo sapiens, UniProt P00533, C797S/DEL746-750)?
result: 9.40

query: # query: pIC50 | item O=S(=O)(C1CC1)n1cc(-c2nccc(Nc3cc(N[C@H]4CCC[C@H](CO)C4)c(-c4ccc(CC(F)(F)F)cn4)cn3)n2)cn1 | system: EGFR del19/C797S (Homo sapiens, UniProt P00533, C797S/DEL746-750)
result: 8.05

query: Lookup: pIC50 / EGFR del19/C797S (Homo sapiens, UniProt P00533, C797S/DEL746-750) / Cc1ccc(-c2cnc(Nc3ccnc(-c4cnn(S(=O)(=O)C5CC5)c4)n3)cc2N[C@H]2CC[C@@](C)(O)CC2)nc1F
result: 9.22

query: Quick check: pIC50 on EGFR del19/C797S (Homo sapiens, UniProt P00533, C797S/DEL746-750), item CC(C)(O)C1CCC(Nc2cc(Nc3ccnc(-c4cnn(S(=O)(=O)C5CC5)c4)n3)ncc2-c2ccc(C(C)(O)C(F)(F)F)cn2)CC1 (stereo not drawn) ?
result: 8.15

query: Query pIC50 on EGFR del19/C797S (Homo sapiens, UniProt P00533, C797S/DEL746-750) for CC1(O)CCC(Nc2cc(Nc3ccnc(-c4cnn(S(=O)(=O)C5CC5)c4)n3)ncc2-c2ccc(C(C)(O)C(F)(F)F)cn2)CC1 (stereo not drawn)
result: 8.77

query: What value of pIC50 on EGFR del19/C797S (Homo sapiens, UniProt P00533, C797S/DEL746-750) does O=S(=O)(C1CC1)n1cc(-c2nccc(Nc3cc(NC4CCC(F)CC4)c(-c4ccc(N5CCC(F)(F)CC5)nn4)cn3)n2)cn1 (stereo not drawn) have?
result: 7.09

query: Any idea what pIC50 came out for CC(C)(F)c1ccc(-c2cnc(Nc3ccnc(-c4cnn(S(=O)(=O)C5CC5)c4)n3)cc2N[C@H]2CC[C@@H](F)CC2)nc1 on EGFR del19/C797S (Homo sapiens, UniProt P00533, C797S/DEL746-750)?
result: 7.02

query: Form entry - test system: EGFR del19/C797S (Homo sapiens, UniProt P00533, C797S/DEL746-750); read-out: pIC50; molecule: C[C@]1(O)CC[C@@H](Nc2cc(Nc3ccnc(-c4cnn(S(=O)(=O)C5CC5)c4)n3)ncc2-c2ccc(N3CC(F)(F)C3)cn2)CC1
result: 8.68

query: Missing value: pIC50, EGFR del19/C797S (Homo sapiens, UniProt P00533, C797S/DEL746-750), entry O=S(=O)(C1CC1)n1cc(-c2nccc(Nc3cc(NC4CCC(CO)CC4)c(-c4ccc(C(O)C(F)(F)F)cn4)cn3)n2)cn1 (stereo not drawn) . Fill in?
result: 8.72
